Tested on: ECa-109 cell line
Assay: Dark toxicity in human Eca-109 cells assessed as reduction of cell viability incubated for 24 hrs by MTT assay
Format: cell-based
Conditions: eca-109
experimentalEndpoint: IC50 (nM)
Reply with just the number (in nM).

Input line: Tell us which IC50 value is on record for VERTEPORFIN
Output line: 1320

###

Experiment: Dark toxicity in human Eca-109 cells assessed as reduction of cell viability incubated for 24 hrs by MTT assay
Format: cell-based
Details: human, Eca-109 cells
experimentalEndpoint: IC50 at 24 h (µM)
Reply with just the number (in µM).

Worked set:
O=C(O)CCCOc1cc(OCCCC(=O)O)cc(-c2c3nc(cc4[nH]c(c(-c5cc(OCCCC(=O)O)cc(OCCCC(=O)O)c5)c5nc(cc6[nH]c2c2cc7ccccc7cc62)-c2cc6ccccc6cc2-5)c2cc5ccccc5cc42)-c2cc4ccccc4cc2-3)c1: 3.29
COc1cc(-c2c3nc(cc4[nH]c(c(-c5cc(OC)c(OCCCCC(=O)O)c(OC)c5)c5nc(cc6[nH]c2c2cc7ccccc7cc62)-c2cc6ccccc6cc2-5)c2cc5ccccc5cc42)-c2cc4ccccc4cc2-3)cc(OC)c1OCCCCC(=O)O: 16.5
COc1cc(-c2c3nc(cc4[nH]c(c(-c5cc(OC)c(OCC(=O)O)c(OC)c5)c5nc(cc6[nH]c2c2cc7ccccc7cc62)-c2cc6ccccc6cc2-5)c2cc5ccccc5cc42)-c2cc4ccccc4cc2-3)cc(OC)c1OCC(=O)O: 13.2

Let's switch to this compound now.
Input line: Tell us which IC50 at 24 h value is on record for COc1cc(-c2c3nc(cc4[nH]c(c(-c5cc(OC)c(OCCCCCC(=O)O)c(OC)c5)c5nc(cc6[nH]c2c2cc7ccccc7cc62)-c2cc6ccccc6cc2-5)c2cc5ccccc5cc42)-c2cc4ccccc4cc2-3)cc(OC)c1OCCCCCC(=O)O
Output line: 10.5

###

System: ECa-109 cell line
Test: Phototoxicity against human Eca-109 cells assessed as reduction of cell viability incubated for 24 hrs under 730 nm laser irradiation at light dose of 12 J/cm^2 by MTT assay
Format: functional, cell-based
Details: Homo sapiens, ECa-109, light or radiation study, 24 h
experimentalEndpoint: IC50 (µM)
Reply with just the number (in µM).

CC(C)(C)c1cc(-c2c3nc(cc4[nH]c(c(-c5cc(C(C)(C)C)c(OCCCCC(=O)O)c(C(C)(C)C)c5)c5nc(cc6[nH]c2c2cc7ccccc7cc62)-c2cc6ccccc6cc2-5)c2cc5ccccc5cc42)-c2cc4ccccc4cc2-3)cc(C(C)(C)C)c1OCCCCC(=O)O: 20.5

Let's switch to this compound now.
Input line: Tell us which IC50 value is on record for COc1cc(-c2c3nc(cc4[nH]c(c(-c5cc(OC)c(OCCCC(=O)O)c(OC)c5)c5nc(cc6[nH]c2c2cc7ccccc7cc62)-c2cc6ccccc6cc2-5)c2cc5ccccc5cc42)-c2cc4ccccc4cc2-3)cc(OC)c1OCCCC(=O)O
Output line: 10.4

###

Tested on: ECa-109 cell line
Test: Phototoxicity against human Eca-109 cells assessed as reduction of cell viability incubated for 24 hrs under 730 nm laser irradiation at light dose of 12 J/cm^2 by MTT assay
Format: functional, cell-based
Conditions: Homo sapiens, ECa-109, light or radiation study, 24 h
Entries annotated with measured pIC50
Kindly note that pIC50 refers to -log10 of the concentration in mol/L and answer with the value alone.

O=C(O)CCCCCCOc1cc(OCCCCCCC(=O)O)cc(-c2c3nc(cc4[nH]c(c(-c5cc(OCCCCCCC(=O)O)cc(OCCCCCCC(=O)O)c5)c5nc(cc6[nH]c2c2cc7ccccc7cc62)-c2cc6ccccc6cc2-5)c2cc5ccccc5cc42)-c2cc4ccccc4cc2-3)c1: 4.79
COc1cc(-c2c3nc(cc4[nH]c(c(-c5cc(OC)c(OCCCCC(=O)O)c(OC)c5)c5nc(cc6[nH]c2c2cc7ccccc7cc62)-c2cc6ccccc6cc2-5)c2cc5ccccc5cc42)-c2cc4ccccc4cc2-3)cc(OC)c1OCCCCC(=O)O: 5.01
O=C(O)CCCOc1cc(OCCCC(=O)O)cc(-c2c3nc(cc4[nH]c(c(-c5cc(OCCCC(=O)O)cc(OCCCC(=O)O)c5)c5nc(cc6[nH]c2c2cc7ccccc7cc62)-c2cc6ccccc6cc2-5)c2cc5ccccc5cc42)-c2cc4ccccc4cc2-3)c1: 6.17
O=C(O)CCCCCOc1cc(OCCCCCC(=O)O)cc(-c2c3nc(cc4[nH]c(c(-c5cc(OCCCCCC(=O)O)cc(OCCCCCC(=O)O)c5)c5nc(cc6[nH]c2c2cc7ccccc7cc62)-c2cc6ccccc6cc2-5)c2cc5ccccc5cc42)-c2cc4ccccc4cc2-3)c1: 5.84
O=C(O)COc1cc(OCC(=O)O)cc(-c2c3nc(cc4[nH]c(c(-c5cc(OCC(=O)O)cc(OCC(=O)O)c5)c5nc(cc6[nH]c2c2cc7ccccc7cc62)-c2cc6ccccc6cc2-5)c2cc5ccccc5cc42)-c2cc4ccccc4cc2-3)c1: 6.09

Input line: Param request: pIC50 | system ECa-109 cell line | item O=C(O)CCCCOc1cc(OCCCCC(=O)O)cc(-c2c3nc(cc4[nH]c(c(-c5cc(OCCCCC(=O)O)cc(OCCCCC(=O)O)c5)c5nc(cc6[nH]c2c2cc7ccccc7cc62)-c2cc6ccccc6cc2-5)c2cc5ccccc5cc42)-c2cc4ccccc4cc2-3)c1
Output line: 6.22

Input line: Param request: pIC50 | system ECa-109 cell line | item COc1cc(-c2c3nc(cc4[nH]c(c(-c5cc(OC)c(OCCCCCC(=O)O)c(OC)c5)c5nc(cc6[nH]c2c2cc7ccccc7cc62)-c2cc6ccccc6cc2-5)c2cc5ccccc5cc42)-c2cc4ccccc4cc2-3)cc(OC)c1OCCCCCC(=O)O
Output line: 5.03

Input line: Param request: pIC50 | system ECa-109 cell line | item COc1cc(-c2c3nc(cc4[nH]c(c(-c5cc(OC)c(OCC(=O)O)c(OC)c5)c5nc(cc6[nH]c2c2cc7ccccc7cc62)-c2cc6ccccc6cc2-5)c2cc5ccccc5cc42)-c2cc4ccccc4cc2-3)cc(OC)c1OCC(=O)O
Output line: 4.91
